- Tested on: HCT116
- Experimental Protocol: AC50 cell viability (CellTiter-Glo); higher = less potent
- Recorded Conditions: 48 h
Observation Type: log10 AC50 cell viability (log10 of the value in µM)

Compound: O=C1\C=C(OC2=C(C=CC=C12)C3=CC=CC4=C3SC5=C4C=CC=C5)\N6CCOCC6 [NU-7441]
log10 AC50 cell viability: 0.57
--
Compound: Clc1ccc(C(Cn2ccnc2)OCc2ccsc2Cl)c(Cl)c1 (stereo not drawn) [Tioconazole]
log10 AC50 cell viability: 1.27
--
Compound: C=CC(=O)N1CCC(Oc2cc3c(Nc4ccc(Cl)c(Cl)c4F)ncnc3cc2OC)CC1 [Poziotinib]
log10 AC50 cell viability: 1.27
--
Compound: Cc1n[nH]c2ccc(-c3cncc(OC[C@@H](N)Cc4c[nH]c5ccccc45)c3)cc12
log10 AC50 cell viability: -0.38
--
Compound: CCc1cnn2c(NCc3ccc[n+]([O-])c3)cc(N3CCCC[C@H]3CCO)nc12
log10 AC50 cell viability: -1.83
--
Compound: CC(C)(C)c1cc(C=C(C#N)C#N)cc(Br)c1O [AG-1024]
log10 AC50 cell viability: 1.42
--
Compound: Cc1[nH]c(/C=C2\C(=O)Nc3ccc([S+](=O)([O-])Cc4c(Cl)cccc4Cl)cc32)c(C)c1C(=O)N1CCC[C@@H]1CN1CCCC1
log10 AC50 cell viability: 0.87
--
Compound: O=C(NOCCO)c1ccc2cncn2c1Nc1ccc(I)cc1F [GDC-0623]
log10 AC50 cell viability: 1.07

====

- Test system: HCT116
- Experimental Protocol: efficacy (fitted maximal change in viability relative to DMSO control); higher = less cytotoxic (negative = loss of viability)
- Recorded Conditions: 48 h
Each entry below carries its recorded efficacy.

Compound: C[S+](=O)([O-])c1ccc(Oc2cc(F)cc(C#N)c2)c2c1[C@H](O)C(F)(F)C2
Value Units: %
efficacy: -10.6
--
Compound: CN(C)C/C=C/C(=O)Nc1cccc(C(=O)Nc2cccc(Nc3ncc(Cl)c(-c4c[nH]c5ccccc45)n3)c2)c1
Value Units: %
efficacy: -78.8
--
Compound: O=[S+]([O-])(CC1CS1)c1ccc(Oc2ccccc2)cc1 (centres undefined)
Value Units: %
efficacy: -55.8
--
Compound: NC(=O)c1cnc2[nH]ccc2c1NC1C2CC3C[C@H]1CC(O)(C3)C2 (some centres undefined)
Value Units: %
efficacy: -67.2

====

- Test system: HCT116
- Experimental Protocol: AC50 cell viability (CellTiter-Glo); higher = less potent
- Recorded Conditions: 48 h
Each entry below carries its recorded AC50 cell viability.

Mol: C[C@H]1[C@H](O)O[C@@H]2O[C@@]3(C)CC[C@H]4[C@H](C)CC[C@@H]1[C@@]24OO3
Study Target: HCT116
AC50 cell viability: 2.63 µM

Mol: Cc1cc2c(C(N)=O)cccc2n1-c1nc2c(c(NCc3ccccc3)n1)COCC2
Study Target: HCT116
AC50 cell viability: 0.833 µM

Mol: OCCn1cc(-c2ccc3c(c2)CC/C3=N\O)c(-c2ccncc2)n1
Study Target: HCT116
AC50 cell viability: 4.68 µM

Mol: CC1=C(OC2=CC3=NC=N[N]3C=C2)C=CC(=C1)NC4=NC=NC5=C4C=C(N\C6=N\C(C)(C)CO6)C=C5
Study Target: HCT116
AC50 cell viability: 20.9 µM

====

- System: HCT116
- Experimental Protocol: AC50 cell viability (CellTiter-Glo); higher = less potent
- Recorded Conditions: 48 h
Observation Type: AC50 cell viability (µM)

Molecule: CC1(C)CCC(=C(CN2CCN(CC2)C3=CC=C(C=C3)C(=O)N[S+]([O-])(=O)C4=CC(=C(N[C@H](CCN5CCOCC5)CSC6=CC=CC=C6)C=C4)[S+]([O-])(=O)C(F)(F)F)\C1)/C7=CC=C(Cl)C=C7
Value Units: µM
Number: 13.2
--
Molecule: c1ccc(CNc2nc(NCc3ccccc3)c3ccccc3n2)cc1
Value Units: µM
Number: 8.33
--
Molecule: N#Cc1c(NC(=O)c2cccc3ccccc23)sc2c1CCCC2
Value Units: µM
Number: 0.417
--
Molecule: CCOC(=O)CCNc1cc(N2CCc3ccccc3CC2)nc(-c2ccccn2)n1
Value Units: µM
Number: 2.95
--
Molecule: CC\1=C(C(\N=C(/N1)C2=CC(=NC=C2)Cl)C3=C(F)C=C(Cl)C=C3)/C(=O)NC4=C(F)C=C5[NH]N=CC5=C4 (stereo not given)
Value Units: µM
Number: 29.5
--
Molecule: CCOC(=O)[C@@]1(CCCCCCOc2ccc(Cl)cc2)CO1
Value Units: µM
Number: 18.6
--
Molecule: CCNC(=O)Nc1ccc(-c2nc3c(c(N4CCOC[C@@H]4C)n2)CCN(C2COC2)C3)cc1
Value Units: µM
Number: 3.32
--
Molecule: COC(=O)c1ccc2c(c1)NC(=O)/C2=C(\Nc1ccc(N(C)C(=O)CN2CCN(C)CC2)cc1)c1ccccc1
Value Units: µM
Number: 5.9
--
Molecule: Cc1ccc(-c2cc(C(F)(F)F)nn2-c2ccc([S+](N)(=O)[O-])cc2)cc1
Value Units: µM
Number: 18.6
--
Molecule: Cn1ncc(Cl)c1-c1cc(C(=O)N[C@H](CN)Cc2ccc(F)c(F)c2)sc1Cl
Value Units: µM
Number: 16.6
--
Molecule: Cc1c(C)c2c(c(C)c1O)CCC(C)(COc1ccc(CC3SC(=O)NC3=O)cc1)O2 (stereo not given)
Value Units: µM
Number: 18.6
--
Molecule: COc1cc([C@@H]2c3cc4c(cc3[C@@H](O)C3COC(=O)C32)OCO4)cc(OC)c1O (stereo not given in full)
Value Units: µM
Number: 0.235
--
Molecule: COc1cc(Nc2ncc(F)c(Nc3ccc4c(n3)N(COP(=O)(O)O)C(=O)C(C)(C)O4)n2)cc(OC)c1OC
Value Units: µM
Number: 18.6
--
Molecule: C[N]1N=CC=C1NC2=NC=CC(=N2)C\3=C\C(=O)N(\C=C3)[C@H](CO)C4=CC(=C(Cl)C=C4)F
Value Units: µM
Number: 14.8
--
Molecule: Cc1ccc(Nc2cc(-c3cccc(N4C(=O)c5ccccc5C4=O)c3)ncn2)cc1N[S+](C)(=O)[O-]
Value Units: µM
Number: 20.9

====

- Tested on: HCT116
- Experimental Protocol: efficacy (fitted maximal change in viability relative to DMSO control); higher = less cytotoxic (negative = loss of viability)
- Recorded Conditions: 48 h

Mol: Cn1ncc(Cl)c1-c1cc(C(=O)N[C@H](CN)Cc2ccc(F)c(F)c2)sc1Cl
Study Target: HCT116
efficacy [%]: -116

Mol: O=C1c2c(O)ccc(O)c2C(=O)c2c(NCCNCCO)ccc(NCCNCCO)c21
Study Target: HCT116
efficacy [%]: -91.4

Mol: OC[C@@H](O)[C@@H](O)[C@H](O)[C@@H](O)CO
Study Target: HCT116
efficacy [%]: 13

Mol: CN1C(=O)\C(=C/C(=C1/NC2=C(F)C=C(I)C=C2)C(=O)NOCCO)C
Study Target: HCT116
efficacy [%]: -68.6

Mol: OC1=CC=C(C=C1)\C2=C\OC3=C(C=CC(=C3)O)C2=O
Study Target: HCT116
efficacy [%]: 12.4

====

- Test system: HCT116
- Experimental Protocol: AC50 cell viability (CellTiter-Glo); higher = less potent
- Recorded Conditions: 48 h
Structures can show the parent of a compound that is named as a salt.

Compound: Cc1c(-c2ccc(O)cc2)n(Cc2ccc(OCCN3CCCCCC3)cc2)c2ccc(O)cc12
AC50 cell viability: 20.9 µM

Compound: O=C(/C=C/c1ccc2ccc(C(F)(F)F)cc2n1)c1ccncc1
AC50 cell viability: 3.72 µM

Compound: C=C1C[C@@H]2CC[C@@]34C[C@H]5O[C@H]6[C@@H](O3)[C@H]3O[C@H](CC[C@@H]3O[C@H]6[C@H]5O4)CC(=O)C[C@@H]3[C@@H](OC)[C@@H](C[C@H](O)CN)O[C@H]3C[C@H]3O[C@@H](CC[C@@H]1O2)C[C@@H](C)C3=C [Eribulin mesylate]
AC50 cell viability: 0.00241 µM

====

- Tested on: HCT116
- Experimental Protocol: AC50 cell viability (CellTiter-Glo); higher = less potent
- Recorded Conditions: 48 h
Observation Type: AC50 cell viability (µM)

Molecule: FC(F)(F)c1ccc(C/N=c2\ccc(Cc3c[nH]c4ncccc34)c[nH]2)cc1 [PLX-647]
Study Target: HCT116
Observation Type: AC50 cell viability
Number: 13.2

Molecule: O=[N+]([O-])c1ccc(Nc2ccccc2-c2ccccc2)c2nonc12
Study Target: HCT116
Observation Type: AC50 cell viability
Number: 16.6

Molecule: CCN(CC)CCCC(C)Nc1nc(C)cc(Nc2ccc3nc(C)cc(N)c3c2)n1 (stereo unspecified)
Study Target: HCT116
Observation Type: AC50 cell viability
Number: 20.9

Molecule: CCN1CCN(Cc2ccc(NC(=O)c3ccc(C)c(/C=C/c4cnc5[nH]ccc5c4OC)c3)cc2C(F)(F)F)CC1 [HG-6-64-1]
Study Target: HCT116
Observation Type: AC50 cell viability
Number: 2.95

Molecule: NC(=O)Nc1cc(-c2ccc(CN3CCOCC3)cc2)sc1C(N)=O [AZ-TAK1 Inhibitor]
Study Target: HCT116
Observation Type: AC50 cell viability
Number: 5.25

Molecule: Cc1ccc(-c2ccc3c(ccc4sc5c(c43)NC[C@@H](C)NC5=O)n2)cn1
Study Target: HCT116
Observation Type: AC50 cell viability
Number: 20.9

Molecule: Nc1ccccc1NC(=O)c1ccc(CNC(=O)OCc2cccnc2)cc1 [Entinostat]
Study Target: HCT116
Observation Type: AC50 cell viability
Number: 2.95

Molecule: COc1cc2ncnc(Nc3cccc(Cl)c3)c2cc1OC [AG-1478]
Study Target: HCT116
Observation Type: AC50 cell viability
Number: 23.5

Molecule: C1=CC2=N/C(=N\c3ccc(OCCN4CCCC4)c(c3)COC/C=C/COCc3cccc2c3)N1 [Pacritinib]
Study Target: HCT116
Observation Type: AC50 cell viability
Number: 1.86

Molecule: COc1cc2c(cc1-c1c(C)noc1C)ncc1[nH]c(=O)n([C@H](C)c3ccccn3)c12 [I-BET151]
Study Target: HCT116
Observation Type: AC50 cell viability
Number: 1.32

Molecule: Cc1ccc([S+](=O)([O-])Nc2cc(Cl)ccc2C(=O)Nc2nc(-c3ccccc3)cs2)cc1
Study Target: HCT116
Observation Type: AC50 cell viability
Number: 2.63

Molecule: COc1ccc2cc3[n+](cc2c1OC)CCc1cc2c(cc1-3)OCO2 [Berberine]
Study Target: HCT116
Observation Type: AC50 cell viability
Number: 14.8

Molecule: COC1=CC=C2C(=CC=NC2=C1)OC3=CC=C(NC(=O)\C4=C(C)\N(CC(C)(C)O)N(C4=O)C5=CC=CC=C5)C=C3F [AMG-1]
Study Target: HCT116
Observation Type: AC50 cell viability
Number: 11.8

Molecule: CN[S+](=O)([O-])c1ccc2c(c1)/C(=C/c1[nH]c3c(c1CCCN1CCN(C)CC1)CCCC3)C(=O)N2 [PRP01-012]
Study Target: HCT116
Observation Type: AC50 cell viability
Number: 14.8

Molecule: Cc1c(NC(=O)c2cc(C(N)=O)nc3cc(F)ccc23)c(C(F)(F)F)nn1Cc1ccc(C#N)cc1 [BAY-876]
Study Target: HCT116
Observation Type: AC50 cell viability
Number: 4.68

Molecule: CC(C)(O)/C=C\C(=O)[C@](C)(O)[C@H]1[C@H](O)C[C@]2(C)[C@@H]3CC=C4[C@@H](C=C(O)C(=O)C4(C)C)[C@]3(C)C(=O)C[C@@]12C [Cucurbitacin I]
Study Target: HCT116
Observation Type: AC50 cell viability
Number: 0.166

Molecule: O=C(C1CC1)N1CC[C@@H](Cn2c(-c3ccc(-c4ccc5occc5c4)cc3)nc3cnccc32)C1
Study Target: HCT116
Observation Type: AC50 cell viability
Number: 23.5

Molecule: Nc1nccn2c1c(-c1cc3cccc(Cl)c3[nH]1)nc2[C@H]1CC[C@H](C(=O)O)CC1 [OXA-01]
Study Target: HCT116
Observation Type: AC50 cell viability
Number: 9.34

Molecule: O=C(NC[C@H](O)CO)c1ccncc1Nc1ccc(I)cc1F [Pimasertib]
Study Target: HCT116
Observation Type: AC50 cell viability
Number: 0.118

Molecule: COc1cc(F)ccc1-c1ncnc(Nc2cccc(C[S+](C)(=N)[O-])c2)n1 (stereo unspecified) [Atuveciclib]
Study Target: HCT116
Observation Type: AC50 cell viability
Number: 0.468

Molecule: CN(C)CC(=O)N1CCC(CC1)C2=CC=C(NC(=O)C3=NC(=C[NH]3)C#N)C(=C2)\C4=C\CCCC4
Study Target: HCT116
Observation Type: AC50 cell viability
Number: 16.6

Molecule: O=C(NOCC(O)CO)c1cc(Br)c(F)c(F)c1Nc1ccc(I)cc1F (stereo unspecified)
Study Target: HCT116
Observation Type: AC50 cell viability
Number: 0.934

Molecule: CC1CCN(c2cc(N3CCN(C)CC3)ccc2NC(=O)c2cc(C#N)c[nH]2)CC1 [c-FMS Inhibitor]
Study Target: HCT116
Observation Type: AC50 cell viability
Number: 7.42

Molecule: C[C@@H](C(=O)Nc1ccc(Cl)cc1)[C@H]1CC[C@@H](c2ccnc3ccc(F)cc32)CC1
Study Target: HCT116
Observation Type: AC50 cell viability
Number: 18.6

Molecule: O=C(NO)C1(C[S+](=O)([O-])c2ccc(Oc3ccc(Cl)cc3)cc2)CCOCC1 [CTS-1027]
Study Target: HCT116
Observation Type: AC50 cell viability
Number: 20.9

Molecule: NC/1=N/C(=O)N(/C=N1)[C@@H]2O[C@H](CO)[C@@H](O)[C@H]2O [5-Azacitidine]
Study Target: HCT116
Observation Type: AC50 cell viability
Number: 5.9

Molecule: CN1C(=O)c2sccc2N(C)c2nc(Nc3ccc([S+](N)(=O)[O-])cc3)ncc21 [XMU-MP-1]
Study Target: HCT116
Observation Type: AC50 cell viability
Number: 3.32

Molecule: N[S+](=O)([O-])c1ccc([S+](=O)([O-])Nc2cccc3c(Cl)c[nH]c23)cc1 [Indisulam (E7070)]
Study Target: HCT116
Observation Type: AC50 cell viability
Number: 1.86

Molecule: COc1ccc(-c2ccc3c(N4CCOCC4)nc(N4C[C@@H](C)O[C@@H](C)C4)nc3n2)cc1CO
Study Target: HCT116
Observation Type: AC50 cell viability
Number: 1.66

Molecule: N#Cc1ccc(Cn2cncc2CN2CCN(c3cccc(Cl)c3)C(=O)C2)cc1
Study Target: HCT116
Observation Type: AC50 cell viability
Number: 0.332

Molecule: c1ccc(Cn2c(-c3ccc(OCC(C4CCNCC4)n4c(-c5ccccc5)nc5ccccc54)cc3)nc3ccccc32)cc1 (stereo unspecified) [Deltarasin]
Study Target: HCT116
Observation Type: AC50 cell viability
Number: 9.34
